# measured_target: Adrenergic receptor beta (Rattus norvegicus, UniProt P18090+P10608+P26255)
# test_summary: Inhibition of [3H]dihydroalprenolol binding to Beta adrenergic receptor from rat cerebral cortical membranes
# Type: cell membranes, Membrane
readout_name: Ki (µM)
Please state the figure in µM; there is no need to write the unit.

Completed entries (count: 4):
compound="COc1cc2c(cc1O)C(Cc1ccc(O)c(O)c1)NCC2 (stereo unspecified)" readout_name=Ki measured_number=0.2
compound=COc1ccc(C[C@H]2NCCc3cc(OC)c(O)cc32)cc1O readout_name=Ki measured_number=30
compound=Oc1ccc(C[C@H]2NCCc3cc(O)c(O)cc32)cc1O readout_name=Ki measured_number=30
compound=Oc1ccc(C[C@@H]2NCCc3cc(O)c(O)cc32)cc1O readout_name=Ki measured_number=0.3

Now look at this one.
Challenge: # return Ki of Oc1cc(Br)c(CC2NCCc3cc(O)c(O)cc32)cc1O (stereo unspecified) (system: Adrenergic receptor beta (Rattus norvegicus, UniProt P18090+P10608+P26255))
Response given: 40

Reference source: ChEMBL document CHEMBL1121453
